molecular target: T1, human a-Mesothelin (Acro Biosystems; MSN_H5223) (human, UniProt Q13421 296-580, limits assumed); assay: SPR, mesothelin immobilised, scFv analyte, 1:1 fit
T1 construct: Bought protein immobilised on the SPR chip; Printed as 'a-Mesothelin' but used as the antigen for the anti-MSLN scFvs; also called Human MSLN; MSLN
T1 sequence (Q13421 other isoform, or with tags, fused parts or gaps limits assumed): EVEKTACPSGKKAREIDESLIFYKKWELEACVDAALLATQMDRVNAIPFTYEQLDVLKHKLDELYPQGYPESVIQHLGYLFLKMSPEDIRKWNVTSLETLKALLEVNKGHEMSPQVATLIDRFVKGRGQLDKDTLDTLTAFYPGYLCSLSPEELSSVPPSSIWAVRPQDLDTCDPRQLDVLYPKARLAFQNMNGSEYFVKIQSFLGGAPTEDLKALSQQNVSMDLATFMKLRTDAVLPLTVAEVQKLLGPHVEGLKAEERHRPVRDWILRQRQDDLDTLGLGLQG
Provide the recorded n-fold to wt for the entries that follow.
One number for each entry, in fold.

>>> observed_value("PRO3344 (scFv 54-21-H03-sc01_(T101K, T146Q)) (scFv, PRO1922 variant; VH substitutions, AHo numbering; also called PRO1922 T101K-T146Q) scFv: DIQMTQSPSSLSASVGDRVTITCQASESIYSSLAWYQQKPGKAPKLLIYLASTLASGVPSRFSGSGSGTDFTLTISSLQPEDFATYYCQSTDYTTSTHRNSFGTGTKVTVLGGGGGSGGGGSGGGGSGGGGSEVQLVESGGGLVQPGGSLRLSCAASGFSFSTTYYMCWVRQAPGKGLEWIGCTNTASSVRTYYATWAKGRFTISRDNSKNTVYLQMNSLRAEDKAVYYCARDMGFADYALNLWGQGTLVQVSS")
0.9

From here, focus on the item given below.
Query block: Would you mind telling me what n-fold to wt value was observed for PRO3326 (scFv 54-21-H03-sc01_(T101Q, T146Q)) (scFv, PRO1922 variant; VH substitutions, AHo numbering; also called PRO1922 T101Q-T146Q) scFv: DIQMTQSPSSLSASVGDRVTITCQASESIYSSLAWYQQKPGKAPKLLIYLASTLASGVPSRFSGSGSGTDFTLTISSLQPEDFATYYCQSTDYTTSTHRNSFGTGTKVTVLGGGGGSGGGGSGGGGSGGGGSEVQLVESGGGLVQPGGSLRLSCAASGFSFSTTYYMCWVRQAPGKGLEWIGCTNTASSVRTYYATWAKGRFTISRDNSKNTVYLQMNSLRAEDQAVYYCARDMGFADYALNLWGQGTLVQVSS ?
Result block: 1
